system: PBMC; assay: Cytotoxicity against human PBMC cells at 1 to 100 ug/ml after 24 hrs by MTT assay; format: cell-based
Numbered stars: 1 amine (or outer) side, 2 acyl side, 3 side chain; on linkers, the order of the positions; unused ones are H or OH. Square brackets hold non-standard residues; d marks the D form. Peptide text beside a SMILES is read from it. GABA(3S-Bn) = O=C(C[C@@H](CN[*:1])Cc1ccccc1)[*:2]
Property Label: Activity

[[record]]
compound = "CC[C@H](C)[C@H](N)C(=O)N[C@H](C(=O)N[C@@H](CC(C)C)C(=O)N[C@H](C(=O)N1CCC[C@H]1C(=O)N1CCC[C@H]1C(=O)N[C@@H](Cc1ccccc1)C(=O)NC[C@H](CC(=O)N[C@@H](CC(C)C)C(=O)O)Cc1ccccc1)C(C)C)[C@@H](C)CC (H-IILVPPF[GABA(3S-Bn)]L-OH)"
value_reported = "Non-toxic"

[[record]]
compound = "CC[C@H](C)[C@@H]1NC(=O)[C@H](CC(C)C)NC(=O)C[C@H](Cc2ccccc2)CNC(=O)[C@H](Cc2ccccc2)NC(=O)[C@@H]2CCCN2C(=O)[C@@H]2CCCN2C(=O)[C@H](C(C)C)NC(=O)[C@H](CC(C)C)NC(=O)[C@H]([C@@H](C)CC)NC1=O (cyclo(F[GABA(3S-Bn)]LIILVPP))"
value_reported = "Non-toxic"


* * *

tested on: PBMC; assay: Cytotoxicity against human PBMC cells at 1 to 100 ug/ml after 24 hrs by MTT assay; format: cell-based
Numbered stars: 1 amine (or outer) side, 2 acyl side, 3 side chain; on linkers, the order of the positions; unused ones are H or OH. Square brackets hold non-standard residues; d marks the D form. Peptide text beside a SMILES is read from it. GABA(3S-Bn) = O=C(C[C@@H](CN[*:1])Cc1ccccc1)[*:2]
Property Label: Activity

[[record]]
compound = "CC[C@H](C)[C@@H]1NC(=O)[C@H](CC(C)C)NC(=O)[C@H](Cc2ccccc2)NC(=O)C[C@H](Cc2ccccc2)CNC(=O)[C@@H]2CCCN2C(=O)[C@@H]2CCCN2C(=O)[C@H](C(C)C)NC(=O)[C@H](CC(C)C)NC(=O)[C@H]([C@@H](C)CC)NC1=O (cyclo(FLIILVPP[GABA(3S-Bn)]))"
property_label = "Activity"
value_reported = "Dose-dependent effect"

[[record]]
compound = "CC[C@H](C)[C@@H]1NC(=O)[C@H](CC(C)C)NC(=O)C[C@H](Cc2ccccc2)CNC(=O)C[C@H](Cc2ccccc2)CNC(=O)[C@@H]2CCCN2C(=O)[C@@H]2CCCN2C(=O)[C@H](C(C)C)NC(=O)[C@H](CC(C)C)NC(=O)[C@H]([C@@H](C)CC)NC1=O (cyclo(IILVPP[GABA(3S-Bn)][GABA(3S-Bn)]L))"
property_label = "Activity"
value_reported = "Dose-dependent effect"


* * *

# maps each entry to its Retention_time
experiment: Retention time of the compound; type: physicochemical
Numbered stars: 1 amine (or outer) side, 2 acyl side, 3 side chain; on linkers, the order of the positions; unused ones are H or OH. Square brackets hold non-standard residues; d marks the D form. Peptide text beside a SMILES is read from it. GABA(3S-Bn) = O=C(C[C@@H](CN[*:1])Cc1ccccc1)[*:2]; GABA(3R-Bn) = O=C(C[C@H](CN[*:1])Cc1ccccc1)[*:2]
Property Label: Retention_time (min)

[[record]]
molecule = "CC[C@H](C)[C@@H]1NC(=O)[C@H](CC(C)C)NC(=O)C[C@@H](Cc2ccccc2)CNC(=O)C[C@@H](Cc2ccccc2)CNC(=O)[C@@H]2CCCN2C(=O)[C@@H]2CCCN2C(=O)[C@H](C(C)C)NC(=O)[C@H](CC(C)C)NC(=O)[C@H]([C@@H](C)CC)NC1=O (cyclo(IILVPP[GABA(3R-Bn)][GABA(3R-Bn)]L))"
property_label = "Retention_time"
value_reported = 9.242

[[record]]
molecule = "CC[C@H](C)[C@H](N)C(=O)N[C@H](C(=O)N[C@@H](CC(C)C)C(=O)N[C@H](C(=O)N1CCC[C@H]1C(=O)N1CCC[C@H]1C(=O)N[C@@H](Cc1ccccc1)C(=O)NC[C@H](CC(=O)N[C@@H](CC(C)C)C(=O)O)Cc1ccccc1)C(C)C)[C@@H](C)CC (H-IILVPPF[GABA(3S-Bn)]L-OH)"
property_label = "Retention_time"
value_reported = 13.177

[[record]]
molecule = "CC[C@H](C)[C@@H]1NC(=O)[C@H](CC(C)C)NC(=O)C[C@@H](Cc2ccccc2)CNC(=O)[C@H](Cc2ccccc2)NC(=O)[C@@H]2CCCN2C(=O)[C@@H]2CCCN2C(=O)[C@H](C(C)C)NC(=O)[C@H](CC(C)C)NC(=O)[C@H]([C@@H](C)CC)NC1=O (cyclo(F[GABA(3R-Bn)]LIILVPP))"
property_label = "Retention_time"
value_reported = 11.87

